Target: T1, BAM1 (BARELY ANY MERISTEM 1) ectodomain (Arabidopsis, UniProt O49545 20-637)
T1 chain: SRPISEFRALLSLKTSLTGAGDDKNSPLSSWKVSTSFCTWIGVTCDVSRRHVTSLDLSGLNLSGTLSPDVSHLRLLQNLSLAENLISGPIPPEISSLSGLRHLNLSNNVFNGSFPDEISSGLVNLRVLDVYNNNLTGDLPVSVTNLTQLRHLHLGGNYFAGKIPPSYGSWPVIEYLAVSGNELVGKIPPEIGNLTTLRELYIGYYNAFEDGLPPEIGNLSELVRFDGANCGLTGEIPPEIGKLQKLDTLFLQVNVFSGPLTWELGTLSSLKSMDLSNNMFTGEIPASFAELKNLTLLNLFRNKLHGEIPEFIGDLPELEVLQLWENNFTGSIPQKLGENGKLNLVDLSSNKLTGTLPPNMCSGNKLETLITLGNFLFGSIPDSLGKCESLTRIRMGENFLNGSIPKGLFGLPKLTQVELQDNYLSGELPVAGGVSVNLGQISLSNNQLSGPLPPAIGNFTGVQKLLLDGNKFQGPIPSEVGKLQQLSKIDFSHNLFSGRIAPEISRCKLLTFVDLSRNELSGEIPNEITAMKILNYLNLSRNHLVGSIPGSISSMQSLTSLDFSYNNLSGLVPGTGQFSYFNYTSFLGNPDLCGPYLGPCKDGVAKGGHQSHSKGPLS
Experiment: ITC
Ends that are not written are not given here.
attribute-measured: Kd (nM)
Field format: number, assumed nM, no unit text.

Sample records with Kd:
binder	attribute-measured	value-observed
PLPPSGPNPLHN (also: Hyp112 and Hyp115 presumed as in wild-type) [CLE9^R109PV111P]	Kd	2240
PLVPSGPNPLHN [CLE9 variant with the first residue substituted by the corresponding one of IDA]	Kd	91

Please look up its Kd: RLVPSGPNPLHN (peptide, UniProt Q9FZE4 109-120, looked up, Pro112 and Pro115 not hydroxylated, CLE9 mature dodecapeptide with plain proline at 112 and 115 in place of hydroxyproline; also called CLE9 with Hyp in positions 4 and 7 replaced by Pro) [CLE9^Hyp112PHyp115P peptide]
3

Please look up its Kd: RLVPSAPSKRHN [IDA^P58RI59LP60V peptide]
980
